# protocol.details: Antiproliferative activity against human KB-VIN cells over expressing p-gp assessed as reduction in cell viability by SRB assay
# Type: functional, cell-based
# stated.conditions: KBVIN
Readings of pIC50 for the listed compounds
// pIC50 is dimensionless: -log10 of concentration (M)

In the examples that follow, each entry is paired with its recorded pIC50.
compound	pIC50
CC(C)=CCC[C@@H](CO)[C@H]1CC[C@@]2(C)[C@@H]3CC[C@H]4C(C)(C)C(=O)CC[C@@]45C[C@@]35CC[C@]12C	5.21
CC(=O)O[C@H]1C(=O)[C@@]2(C)[C@H]([C@H](OC(=O)c3ccccc3)[C@]3(O)C[C@H](OC(=O)[C@H](O)[C@@H](NC(=O)c4ccccc4)c4ccccc4)C(C)=C1C3(C)C)[C@]1(OC(C)=O)CO[C@@H]1C[C@@H]2O	5.66
C[C@@H](C[C@@H](O)[C@@H]1OC1(C)C)[C@@H]1CC[C@]2(C)C3=CC[C@H]4C(C)(C)C(=O)CC[C@]4(C)[C@H]3CC[C@@]12C	5.21

Req: Kindly indicate its recorded pIC50. Item: C[C@@H](C[C@@H](O)[C@@H]1OC1(C)C)[C@@H]1CC[C@]2(C)C3=CC[C@H]4C(C)(C)[C@@H](O)CC[C@]4(C)[C@H]3CC[C@@]12C [DIHYDRONILOTICIN]
Resp: 5.29

Req: Kindly indicate its recorded pIC50. Item: "C[C@@H](C[C@@H](O)[C@H](O)C(C)(C)O)[C@@H]1CC[C@]2(C)C3=CC[C@H]4C(C)(C)[C@@H](O)CC[C@]4(C)[C@H]3CC[C@@]12C"
Resp: 5.01
